The measurements presented in this section are drawn from ChEMBL document CHEMBL1156051.

# System: Mast cell
# EXPERIMENT_DESCRIPTION: Induction of Wistar rat peritoneal mast cell degradation assessed as concanavalin A-induced histamine release at 0.01 to 10 uM after 15 mins fluorometric assay
# Type: functional, cell-based
The source made the active and inactive calls. The calls are words filed in the database; no cut-off is given here.
ENDPOINT_LABEL: Activity

Solved entries (count: 8):
CCCCCCCCCCCCCCCCCC(=O)OCCCCOP(=O)(O)OC[C@H](N)C(=O)O    inactive
CCCCCCCCCCCCCCCC(=O)OCCCOP(=O)(O)O[C@H](C)[C@H](N)C(=O)O    Active
CCCCCCCCCCCCCCCCCC(=O)OCCCCCOP(=O)(O)OC[C@H](N)C(=O)O    inactive
CCCCCCCCCCCCCCCCCC(=O)OC[C@@H](O)COP(=O)(O)O[C@H]1CN[C@@H](C(=O)O)C1    inactive
CCCCCCCCCCCCCCCCCC(=O)OCCCOP(=O)(O)O[C@H](C)[C@H](N)C(=O)O    Active
CCCCCCCCCCCCCCCCCC(=O)OC[C@@H](O)COP(=O)(O)O[C@@H]1CCN[C@H]1C(=O)O    inactive
CCCCCCCCCCCCCCCCCC(=O)OC[C@@H](O)COP(=O)(O)O[C@H](C)[C@H](N)C(=O)O    Active
CCCCCCCCCCCCCCCCCC(=O)OC[C@@H](O)COP(=O)(O)O[C@@H]1CN[C@@H](C(=O)O)C1    inactive

Parameters: items (list). Returns: Activity for each item.
1. CCCCCCCCCCCCCCCCCC(=O)N(C)C[C@@H](O)COP(=O)(O)OC[C@H](N)C(=O)O
2. CCCCCCCCCCCCCCCCCC(=O)OC[C@@H](O)COP(=O)(O)OC[C@H](N)C(=O)OC
3. CCCCCCCCCCCCCCCCCC(=O)NC[C@@H](O)COP(=O)(O)OC[C@H](N)C(=O)O
4. CCCCCCCCCCCCCCCCCC(=O)OC[C@@H](O)COP(=O)(O)OC[C@H](NC)C(=O)O
5. CCCCCCCCCCCCCCCCCC(=O)OCCOP(=O)(O)OC[C@H](N)C(=O)O

Output:
inactive
inactive
inactive
inactive
inactive

---

# System: Mast cell
# EXPERIMENT_DESCRIPTION: Induction of Wistar rat peritoneal mast cell degradation assessed as concanavalin A-induced histamine release after 15 mins fluorometric assay
# Assay type: functional, cell-based
# CONDITION_SUMMARY: 0.25 h
pEC50: −log10 of the molar value.
Label fulfilled when pEC50 >= 6; otherwise not fulfilled.

# count of solved cases: 2
CCCCCCCCCCCCCCCCCC(=O)OCCCCOP(=O)(O)OC[C@H](N)C(=O)O    not fulfilled
CCCCCCCCCCCCCCCCCC(=O)OC[C@@H](O)COP(=O)(O)O[C@@H]1CCN[C@H]1C(=O)O    not fulfilled

Task: Confirm if pEC50 reported for the molecule CCCCCCCCCCCCCCCCCC(=O)OC[C@@H](O)COP(=O)(O)O[C@H](C)[C@H](N)C(=O)O is 6 or above.
Output: fulfilled

Task: Confirm if pEC50 reported for the molecule CCCCCCCCCCCCCCCCCC(=O)NC[C@@H](O)COP(=O)(O)OC[C@H](N)C(=O)O is 6 or above.
Output: not fulfilled

Task: Confirm if pEC50 reported for the molecule CCCCCCCCCCCC(=O)OC[C@@H](O)COP(=O)(O)O[C@H](C)[C@H](N)C(=O)O is 6 or above.
Output: fulfilled

Task: Confirm if pEC50 reported for the molecule CCCCCCCCCCCCCCCCCC(=O)OC[C@@H](O)COP(=O)(O)O[C@@H](C)[C@H](N)C(=O)O is 6 or above.
Output: not fulfilled

Task: Confirm if pEC50 reported for the molecule CCCCCCCCCCCCCCCCCC(=O)OCCCOP(=O)(O)O[C@H](C)[C@H](N)C(=O)O is 6 or above.
Output: fulfilled

Task: Confirm if pEC50 reported for the molecule CCCCCCCCCCCCCCCCCC(=O)OC[C@@H](O)COP(=O)(O)OC[C@H](N)C(=O)OC is 6 or above.
Output: not fulfilled
